target-desc: KIAA1363 (Homo sapiens, UniProt Q6PIU2)
procedure-summary: Gel-based competitive ABPP of living PC3 cells, in situ treatment
Assay type: cell-based
Design: PC3 cancer cells, which have high endogenous KIAA1363 levels; endogenous in cells; host or cells: PC3
endpoint: pIC50
In plain terms, pIC50 is the concentration in mol/L turned into minus its base-10 logarithm.

Input line: Give pIC50 for the following compound: CC1=CC(C)=[N+]2C1=Cc1ccc(CCC(=O)NCCNC(=O)Oc3ccccc3C(C)C)n1[B-]2(F)F [JW576]
Output line: 6.47

* * *

Please go through the items and note down their log10 of IC50.
target-desc: KIAA1363 (Mus musculus, UniProt Q8BLF1)
Construct: ABPP analysis of KIAA1363 activity in mouse brain membrane proteome; from tissue; host or cells: mouse brain (membrane fraction)
procedure-summary: Gel-based competitive ABPP of KIAA1363 in mouse brain membrane proteome (FP-rhodamine)
Format: biochemical
measurement-conditions: mouse brain membrane proteome; inhibitor 30 min before FP-rhodamine (1 μM, 30 min); averages of three replicates; read-out: IC50 (KIAA1363)
// units: µM (pre-log); metric: IC50; scale: log10

Input line: Return value of log10 of IC50 for input Cc1ccc2ccccc2c1OC(=O)NCCc1cccs1 , no commentary.
Output line: 0.52

Input line: Read the entry CC(C)c1ccccc1OC(=O)NCCc1ccc2c(c1)OCO2 and write its reported log10 of IC50.
Output line: -1.95

Input line: Provide one value: measured log10 of IC50 of CCOc1ccccc1OC(=O)NCCc1ccc2c(c1)OCO2
Output line: 0.13

Input line: Name the recorded log10 of IC50 of the item CCOc1ccccc1OC(=O)NCc1ccc(OC(F)(F)F)cc1 in your answer.
Output line: 0.02

Input line: For the molecule Cc1ccc2ccccc2c1OC(=O)NCCc1ccc(Cl)c(Cl)c1 , give its measured log10 of IC50 value.
Output line: -0.18

Input line: State, in one line, measured log10 of IC50 of Cc1ccc2ccccc2c1OC(=O)NCCc1cc2ccccc2[nH]1
Output line: 0.60

Input line: # return recorded log10 of IC50 for entry O=C(NCCc1ccc(F)cc1)Oc1ccc(-n2cccc2)cc1
Output line: 0.08

Input line: Report log10 of IC50 for CCOc1ccccc1OC(=O)NCCC(c1ccccc1)c1ccccc1
Output line: 0.26

Input line: Supply reported log10 of IC50 belonging to this molecule: CCOc1ccccc1OC(=O)NCc1ccc(OC)cc1 [JW388, 2-ethoxyphenyl 4-methoxybenzylcarbamate]
Output line: 0.21

Input line: Please indicate log10 of IC50 recorded for COc1ccc(CCNC(=O)Oc2c(C)ccc3ccccc23)cc1
Output line: 0.48

Input line: Look up and report measured log10 of IC50 for this entry: CCOc1ccccc1OC(=O)NCc1ccc(Cl)cc1 [JW398, 2-ethoxyphenyl 4-chlorobenzylcarbamate]
Output line: -0.01

* * *

target-desc: UniProtKB Q6PIU2
procedure-summary: Gel-based competitive ABPP in PC3 cell proteomes, in vitro treatment
Assay type: biochemical
Parameters: PC3 cancer cells, which have high endogenous KIAA1363 levels; endogenous in cells; host or cells: PC3
measurement-conditions: in vitro treatment
endpoint: pIC50
Lab note — pIC50 values are minus log10 of concentrations in M.

Input line: Look up and report measured pIC50 for this entry: CC(C)c1ccccc1OC(=O)NCCc1ccc2ccccc2c1
Output line: 7.92

* * *

I'd appreciate it if you could supply IC50 values for the items below.
target-desc: KIAA1363 (Mus musculus, UniProt Q8BLF1)
Construct: ABPP analysis of KIAA1363 activity in mouse brain membrane proteome; from tissue; host or cells: mouse brain (membrane fraction)
procedure-summary: Gel-based competitive ABPP of KIAA1363 in mouse brain membrane proteome (FP-rhodamine)
Format: biochemical
measurement-conditions: mouse brain membrane proteome; inhibitor 30 min before FP-rhodamine (1 μM, 30 min); averages of three replicates; read-out: IC50 (KIAA1363)
Write the answer as a number in nM, unit excluded.

Input line: Determine its reported IC50: COc1ccc(CNC(=O)Oc2cccc3c2OC(C)(C)C3)cc1 [JW148]
Output line: 117

Input line: Could you please provide reported IC50 for C=CCc1ccccc1OC(=O)NCCc1ccc(F)cc1 [JW468, 2-allylphenyl 4-fluorophenethylcarbamate] ? Thanks!
Output line: 94.3

* * *

target-desc: KIAA1363 (Homo sapiens, UniProt Q6PIU2)
Sequence (Q6PIU2 1-408): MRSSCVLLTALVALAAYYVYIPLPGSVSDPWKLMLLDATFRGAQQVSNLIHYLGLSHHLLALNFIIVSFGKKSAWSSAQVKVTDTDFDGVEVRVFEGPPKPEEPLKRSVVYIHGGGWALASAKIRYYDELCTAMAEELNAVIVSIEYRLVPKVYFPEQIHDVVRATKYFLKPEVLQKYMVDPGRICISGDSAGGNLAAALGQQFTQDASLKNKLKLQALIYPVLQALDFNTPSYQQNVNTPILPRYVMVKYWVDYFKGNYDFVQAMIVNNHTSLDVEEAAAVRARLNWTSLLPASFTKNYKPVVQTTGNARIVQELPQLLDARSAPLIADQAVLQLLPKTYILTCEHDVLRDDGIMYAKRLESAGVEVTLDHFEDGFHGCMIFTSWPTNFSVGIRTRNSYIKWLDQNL
procedure-summary: Gel-based competitive ABPP of living PC3 cells, in situ treatment
Type: cell-based
Set-up: PC3 cancer cells, which have high endogenous KIAA1363 levels; endogenous in cells; host or cells: PC3
measurement-conditions: PC3 cells, in situ treatment; read-out: IC50 for KIAA1363, in situ (FIG. 3B)
endpoint: IC50
Please state the number and follow it with the unit.

Input line: Return IC50 (reported value) for this molecule: CC(C)c1ccccc1OC(=O)NCCc1ccc2ccccc2c1 [JW480]
Output line: 6 nM

* * *

Assignment: determine reported pIC50 for the given compounds.
target-desc: KIAA1363 (Mus musculus, UniProt Q8BLF1)
Construct: ABPP analysis of KIAA1363 activity in mouse brain membrane proteome; from tissue; host or cells: mouse brain (membrane fraction)
procedure-summary: Gel-based competitive ABPP of KIAA1363 in mouse brain membrane proteome (FP-rhodamine)
Type: biochemical
measurement-conditions: mouse brain membrane proteome; inhibitor 30 min before FP-rhodamine (1 μM, 30 min); averages of three replicates; read-out: IC50 (KIAA1363)
In textbook form, pIC50 equals minus log to base ten of the concentration in mol/L.

Input line: State measured pIC50 of the compound CCOc1ccccc1OC(=O)NCC(c1ccccc1)c1ccccc1 with KIAA1363 (Mus musculus, UniProt Q8BLF1).
Output line: 5.98

Input line: GET pIC50 | system: KIAA1363 (Mus musculus, UniProt Q8BLF1) | item: CC(C)c1ccccc1OC(=O)NCCc1ccc2ccccc2c1
Output line: 7.86

Input line: Please respond with reported pIC50 (system KIAA1363 (Mus musculus, UniProt Q8BLF1)) for O=C(NCCc1cccs1)Oc1ccc(-n2cccc2)cc1 .
Output line: 6.21

Input line: # assay system KIAA1363 (Mus musculus, UniProt Q8BLF1): give pIC50 of CCOc1ccccc1OC(=O)NCCc1ccc(C(F)(F)F)cc1
Output line: 6.53

Input line: Fill in pIC50 for O=C(NCCc1ccc(F)cc1)Oc1ccc(C2CCCC2)cc1 tested with KIAA1363 (Mus musculus, UniProt Q8BLF1).
Output line: 6.10

Input line: Quote pIC50 with test system KIAA1363 (Mus musculus, UniProt Q8BLF1) for CCOc1ccccc1OC(=O)NCc1ccc(C(F)(F)F)cc1
Output line: 5.55

Input line: Provide pIC50, tested on KIAA1363 (Mus musculus, UniProt Q8BLF1), for Cc1ccc2ccccc2c1OC(=O)NCCc1ccc(Br)cc1 .
Output line: 5.97

Input line: // fetch pIC50; item: CCOc1ccccc1OC(=O)NCCc1ccc(Br)cc1 [JW418, 2-ethoxyphenyl 4-bromophenethylcarbamate] ; system: KIAA1363 (Mus musculus, UniProt Q8BLF1)
Output line: 6.48

* * *

target-desc: KIAA1363 (Mus musculus)
Construct: ABPP analysis of KIAA1363 activity in mouse brain membrane proteome; from tissue; host or cells: mouse brain (membrane fraction)
Sequence (Q8BLF1 1-408): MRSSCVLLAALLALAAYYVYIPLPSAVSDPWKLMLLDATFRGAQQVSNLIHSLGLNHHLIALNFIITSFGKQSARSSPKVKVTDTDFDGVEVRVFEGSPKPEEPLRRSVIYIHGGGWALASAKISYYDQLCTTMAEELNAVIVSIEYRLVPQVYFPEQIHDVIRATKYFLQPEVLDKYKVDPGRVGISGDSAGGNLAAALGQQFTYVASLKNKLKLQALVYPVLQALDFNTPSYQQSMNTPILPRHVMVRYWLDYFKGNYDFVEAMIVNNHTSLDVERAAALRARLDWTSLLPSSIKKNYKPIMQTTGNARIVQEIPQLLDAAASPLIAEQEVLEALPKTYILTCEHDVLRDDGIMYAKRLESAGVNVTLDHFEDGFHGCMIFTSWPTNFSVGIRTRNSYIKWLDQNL
procedure-summary: Gel-based competitive ABPP of KIAA1363 in mouse brain membrane proteome (FP-rhodamine)
Format: biochemical
measurement-conditions: mouse brain membrane proteome; inhibitor 30 min before FP-rhodamine (1 μM, 30 min); averages of three replicates; read-out: IC50 (KIAA1363)
For each record, write down the corresponding pIC50.
# pIC50: negative log10 of molar concentration; output just the value

Input line: Check the records and state pIC50 for CCOc1ccccc1OC(=O)NCCc1cccc(OC)c1 [JW442]
Output line: 6.00

Input line: Output pIC50 of O=C(NCc1ccc(C(F)(F)F)cc1)Oc1ccc(-n2cccc2)cc1 [JW383]
Output line: 6.00

Input line: Using the record for O=C(NCc1ccc(OC(F)(F)F)cc1)Oc1ccc(-n2cccc2)cc1 [JW389] , state its measured pIC50.
Output line: 6.58

Input line: Using the record for Cc1ccc2ccccc2c1OC(=O)NCCc1ccc2c(c1)OCO2 [JW417] , state its measured pIC50.
Output line: 6.85

Input line: Provide measured pIC50 value, entry: CC(C)c1ccccc1OC(=O)NCCc1ccc(C(F)(F)F)cc1 [JW482]
Output line: 8.03

Input line: // Input: O=C(NCCc1ccc(F)cc1)Oc1ccc(C2CCCCC2)cc1 [JW472] . Output its pIC50 only.
Output line: 6.92

Input line: Give the measured pIC50 for CCOc1ccccc1OC(=O)NCCCc1ccccc1
Output line: 5.75

Input line: Tell me its pIC50 given CCOc1ccccc1OC(=O)NCCc1ccc(Cl)c(Cl)c1 [JW423] as the entry.
Output line: 6.30

Input line: Answer with reported pIC50 of COc1ccc(CCNC(=O)Oc2ccc(-n3cccc3)cc2)cc1 [JW431]
Output line: 5.89

Input line: Fill in pIC50 for record COc1cccc(CCNC(=O)Oc2c(C)ccc3ccccc23)c1 [JW437]
Output line: 6.68

Input line: State its pIC50: O=C(NCCc1ccc(Br)cc1)Oc1ccc(-n2cccc2)cc1 [JW412]
Output line: 5.78

Input line: Let me know recorded pIC50 for Cc1ccc(C(C)C)c(OC(=O)NCCc2ccc(F)cc2)c1 [JW466] , thanks.
Output line: 6.71

Input line: Query pIC50 for COc1ccc(CNC(=O)Oc2ccc(-n3cccc3)cc2)cc1 [JW384]
Output line: 6.18

Input line: Hello, please tell me recorded pIC50 for this one: CC(C)c1ccccc1OC(=O)NCCc1ccc(F)cc1 [JW464]
Output line: 7.95

Input line: Provide only the value of recorded pIC50 for CCOc1ccccc1OC(=O)NCCc1ccc2ccccc2c1
Output line: 6.05

Input line: Return the recorded pIC50 value; entry: Cc1ccc2ccccc2c1OC(=O)NCCc1ccc2ccccc2c1 [JW440]
Output line: 6.36

Input line: Give the reported value of pIC50 for this record: CC1(C)Cc2cccc(OC(=O)NCc3ccc(I)cc3)c2O1 [JW147]
Output line: 6.83
